protocol summary: single-dose pharmacokinetics and oral bioavailability
Assay type: in vivo, Sprague-Dawley rats
cond: female, Sprague-Dawley, rat, plasma, po, 100 mg/kg
property name: Tmax (min)
Your answer is read as min, so omit the unit and give the number.

Tmax for `Cc1cc(C(=O)NC(C)(C)COc2cccc3c2C(N)=NS(=O)(=O)N3)cc(C)n1` is 15

###

protocol summary: single-dose pharmacokinetics and oral bioavailability
Format: in vivo, Sprague-Dawley rats
cond: male, Sprague-Dawley, rat, plasma, po, 30 mg/kg
property name: Tmax

Record summary for `Cc1cc(C(=O)NC(C)(C)COc2cccc3c2C(N)=NS(=O)(=O)N3)cc(C)n1` : reported Tmax = 22.5 min
